Origin of the recorded values: a melting point compilation (Tetko et al.; mined from patent text by program, amines drawn as free bases though some values may be those of a salt)

readout-kind: melting point

# example entries with known answers
CC1(C)C(=O)Oc2ccc3cc(N)c(Cn4cncn4)cc3c21 = 160 to 163 °C
CCOC(=O)Cc1nc2cc(Cl)ccc2o1 = 90 to 91 °C
Cc1cc(COc2c(Cl)cc(CSc3ccc4ccccc4c3)cc2Cl)oc(=O)c1 = 125 °C

Would you mind telling me what melting point value was observed for `CCc1c(Sc2cc(C)cc(C)c2)n(C/C=C/CO)c(=O)[nH]c1=O` ? 157 to 158 °C

Would you mind telling me what melting point value was observed for `COc1ccc(CNc2nc(CCC(=O)O)nc3sc4ccccc4c23)cc1Cl` ? 218 °C

Would you mind telling me what melting point value was observed for O=C(NCC(=O)N1c2ccccc2N(Cc2ccccc2)C(=O)[C@H]2CCC[C@H]21)c1cccnc1 (relative stereo) ? 189 to 191 °C

Would you mind telling me what melting point value was observed for Cc1ccc(-c2ccc3c(c2)C=C(C(=O)O)C(C)O3)cc1 (stereo not given) ? 190 to 192 °C

Would you mind telling me what melting point value was observed for `CN(C)S(=O)(=O)c1ccc([N+](=O)[O-])cc1C(F)(F)F` ? 95 to 97 °C

Would you mind telling me what melting point value was observed for `CCOC(=O)c1ccc(N2CCC(NC[C@H](O)COc3ccc(O)c(S(C)(=O)=O)c3)CC2)cc1` ? 83 to 85 °C

Would you mind telling me what melting point value was observed for `O=S(=O)(NC1CC1)c1ccc(Nc2nc(OCC3CCCCC3)c3nc[nH]c3n2)cc1` ? 220 to 221 °C

---

readout-kind: melting point

OC1CSC(Oc2cccc(-c3cncc(F)c3)c2)C(O)C1O (stereo not drawn) = 211 to 212 °C
CCCC1=C(C(=O)OC)C(c2ccccc2Cl)c2c[nH]nc2N1 (stereo not drawn) = 203 to 207 °C

Would you mind telling me what melting point value was observed for `CC(=O)c1ccc(N)c(C#N)c1Cl` ? 189 to 193 °C

Would you mind telling me what melting point value was observed for `COc1cc(OCC(=O)O)cc2c1C(Cl)=CC1(CCCCC1)O2` ? 132 to 133 °C

Would you mind telling me what melting point value was observed for `CCN(CC)C(=O)c1cc2ccccc2c(-c2ccccc2)n1` ? 72 °C

Would you mind telling me what melting point value was observed for `CC(C)c1nc(-c2ccc(S(C)(=O)=O)cc2)c(-c2ccc(F)cc2)[nH]1` ? 214 to 215 °C

Would you mind telling me what melting point value was observed for `CCCCc1cn(-c2ccccc2C(C)C)c(=O)n1Cc1ccc(-c2ccccc2-c2nnn[nH]2)cc1` ? 167 to 168 °C

Would you mind telling me what melting point value was observed for `CCCc1nn(C)c2c(=O)[nH]c(Cc3ccc(NC=O)cc3)nc12` ? 260 to 261 °C

Would you mind telling me what melting point value was observed for `Nc1c(C(=O)c2cccc(Br)c2)[nH]c2cc(Cl)ccc12` ? 142 to 143 °C

Would you mind telling me what melting point value was observed for `Cc1c(-c2ccccc2)oc2c(C=O)cccc2c1=O` ? 124 to 126 °C

Would you mind telling me what melting point value was observed for `CC(=O)NC(CCOC(C)=O)(CCOC(C)=O)CCc1ccccc1` ? 73 to 74 °C

Would you mind telling me what melting point value was observed for `NCCCNC(c1ccccc1)(c1ccccc1)c1ccccc1` ? 59 to 61 °C

Would you mind telling me what melting point value was observed for `CCc1cc(OCc2ccc(-c3ccccc3-c3nnn(C(c4ccccc4)(c4ccccc4)c4ccccc4)n3)cc2)c2nc(OCC=O)ccc2n1` ? 168 to 169 °C

Would you mind telling me what melting point value was observed for CC(=O)NCCNCC(O)COc1ccc(CCOCC2CCC2)cc1 (stereo not drawn) ? 108 °C

---

readout-kind: melting point

Would you mind telling me what melting point value was observed for `O=C(O)CCc1cc2cc(-c3ccc(C(F)(F)F)cc3)ccc2n1S(=O)(=O)c1ccccc1` ? 162 °C

Would you mind telling me what melting point value was observed for `CN(C)C1(c2ccc(C(C)(C)C)cc2)CCC(=O)CC1` ? 82.5 to 87 °C

Would you mind telling me what melting point value was observed for `CCCc1cc(Cl)c2oc(C(=O)c3ccc(Cl)cc3)c(C)c2c1OC(=O)c1ccc(Cl)cc1` ? 177 to 182 °C

Would you mind telling me what melting point value was observed for `COCCCS(=O)(=O)NC(=O)CCc1ccc(OCCOC)cc1Oc1ncc(C(F)(F)F)cc1Cl` ? 112 to 113 °C

Would you mind telling me what melting point value was observed for `Cc1c(-c2ccccc2Cl)n(-c2ccccc2)c(-c2ccccc2F)cc1=O` ? 182 to 183 °C

---

This listing pairs compounds with measured melting point.

# example entries with known answers
CNS(=O)(=O)c1ccc(-c2cnc3[nH]c(CCc4cc(OC)ccn4)nc3c2)cc1 = 225 to 227 °C
COc1ccc(N2CCN(c3ccc(F)cc3)CC2)c(-c2ccc(N(C)C)cc2)n1 = 168 to 169 °C
CCOCC1OC(n2cc(C(F)(F)F)c(=O)n(C(=O)c3ccccc3)c2=O)CC1O (stereo not given) = 156 to 157 °C
CCC1SCCCN1C(=S)Nc1cccc(Cl)c1 (stereo not given) = 69 to 73 °C
COc1ccc(S(=O)(=O)Nc2ccccc2NC=O)cc1 = 143 to 144 °C

Would you mind telling me what melting point value was observed for `CC(C)c1ccc(SCc2c(C(C)C)nc(C(C)C)c(CO)c2-c2ccc(F)cc2)cc1` ? 108 to 109 °C

Would you mind telling me what melting point value was observed for `CC(C)c1ccc(C(=O)C2CCN(Cc3ccccc3)CC2)cc1` ? 76 to 77 °C

Would you mind telling me what melting point value was observed for `CCCCCOc1ccc(C#N)cc1-c1cc(C(=N)Nc2cccc(C(F)(F)F)c2)ccc1OCCCCC` ? 74 to 75 °C

Would you mind telling me what melting point value was observed for `NC(=O)c1cnc2sccc2c1Cl` ? 159 to 160 °C

Would you mind telling me what melting point value was observed for `CC1(C)NC(=O)C(C)(C)N1O` ? 240 to 245 °C

---

readout-kind: melting point

Would you mind telling me what melting point value was observed for `Cc1ccccc1C(C(=O)N[C@H]1CCN(CCc2ccc(F)cc2)C1)c1ccccc1C` ? 108 to 110 °C

Would you mind telling me what melting point value was observed for `Cc1nnc(Sc2c(C)cccc2C)o1` ? 53 to 54 °C

Would you mind telling me what melting point value was observed for `Cc1ccc(C(=O)Nc2c[nH]nc2C(=O)NCC(F)(F)F)cn1` ? 218 to 219 °C

Would you mind telling me what melting point value was observed for `CC1(C)OC(=O)C(Oc2ncnc3ccccc23)=C1c1ccc(S(C)(=O)=O)cc1` ? 174 to 177 °C

Would you mind telling me what melting point value was observed for CN1CCN(Cc2ccc(Cl)cc2Cl)C(C2(C)NCCN2)C1 (stereo not given) ? 61 to 63 °C

---

This listing pairs molecules with measured melting point.

# example entries with known answers
CCCCCCCCCCOc1ccc(CO)cc1 = 54 to 55 °C
CCOc1nn(Cc2ccc(OCc3ccccc3)cc2)cc1CCC(=O)O = 115 to 116 °C

Would you mind telling me what melting point value was observed for `COc1ccccc1C1(c2ccccc2OC)CC1` ? 146 to 149 °C

Would you mind telling me what melting point value was observed for CCOC(=O)C1COc2ccc(C(C)=O)cc2O1 (stereo unspecified) ? 57 °C

Would you mind telling me what melting point value was observed for `CCc1nnc(C2=C(OC(=O)c3ccccc3)c3ccccc3S(=O)(=O)N2C)o1` ? 191 to 192 °C

Would you mind telling me what melting point value was observed for O=C(Nc1ccc(C(=O)N2CCO[C@H]3CCCC[C@@H]32)cc1)c1ccc(Cl)cc1Cl (relative stereo) ? 227 to 230 °C

Would you mind telling me what melting point value was observed for `COc1ccc(Nc2nc(C)ccc2S(=O)(=O)c2ccc(OCc3ccccc3OC)cc2)c(C)c1` ? 70 to 72 °C

Would you mind telling me what melting point value was observed for COC=C(C(=O)OC)c1ccccc1[C@@H]1O[C@H]1c1ccccc1 (relative stereo) ? 110 to 113 °C

Would you mind telling me what melting point value was observed for `O=C(O)c1ncc(Br)cc1Br` ? 170 to 171 °C

Would you mind telling me what melting point value was observed for CC(c1oc2ccc(Br)cc2c(=O)c1-c1ccccc1F)n1cnc2c(N)ncnc21 (stereo unspecified) ? 256 to 258 °C

Would you mind telling me what melting point value was observed for CC1CC(N)=C(C#N)C1C (stereo unspecified) ? 92 to 100 °C

---

readout-kind: melting point

O=C(NCc1ccccc1)NNC(=O)c1ccc(Cl)cc1 = 244 to 246 °C

Would you mind telling me what melting point value was observed for `O=C(Nc1ccc(C(F)(F)F)cc1)NC1CCN(C(=O)c2cccnc2)CC1` ? 213 to 217 °C

Would you mind telling me what melting point value was observed for `COC(=O)CCc1cc(C(=O)c2ccccc2Cl)c(N)s1` ? 89 to 90 °C
